Ref: PubChem BioAssay AID1159580

experiment: chemical genetic growth profiling, strain panel (AID 1159580);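 note: tested at 20 µM; growth read once vehicle control cultures reached saturation at 30 °C; lower values mean less growth of the strain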; conditions: S. cerevisiae deletion strains, growth OD, locus YDR318W, strain mcm21
Hit rate of the full screen: of about 5,500 compounds, about 2,000 (36%) were called active. Not shown: some 18% with an inconclusive outcome. Cut-off read from the data, not from the text of the source: active = normalized growth mostly below about 0.91 (no sharp cut-off); inconclusive = no clear call, values can overlap the other calls; inactive = mostly above about 0.92. This is one part of the list.
Possible outcomes: T (active), F (inactive)

# compound, class_assignment
records = [
    ("CC1(C)CC2C1CC[C@]1(CBr)CCC3C(CC(=O)O)C(=O)O[C@@]32C1 (some centres not stated)", "F"),
    ("CC12CCC3C(CC3(C)C)C(C)(CCC1=O)O2 (configuration not stated)", "F"),
    ("O=C(NCO)c1cccnc1", "F"),
    ("C=C(C)C1(O)OC(=O)C=C1OC (configuration not stated)", "F"),
    ("CS(=O)(=O)Nc1ccc([N+](=O)[O-])cc1Oc1ccccc1", "F"),
    ("Nc1ccc(S(=O)(=O)NC(=O)c2ccccc2)cc1", "F"),
    ("CC(=O)Oc1ccc(O)cc1", "F"),
    ("O=P1(N(CCCl)CCCl)NCCCO1 (configuration not stated)", "F"),
    ("O=C(O)c1ccc(S(=O)(=O)N(Cl)Cl)cc1", "F"),
    ("CC(C)=CCc1c2c(c3occ(-c4ccc(O)c(O)c4)c(=O)c3c1O)C=CC(C)(C)O2", "T"),
    ("CC(=O)Oc1ccc(C(c2ccc(OC(C)=O)cc2)c2ccccn2)cc1", "F"),
    ("CCCN(CCC)S(=O)(=O)c1ccc(C(=O)O)cc1", "F"),
]
